System: DU-145 prostate
protocolDescription: NCI tumour cell line growth inhibition, 48 h; in the data active = GI50 below about 0.43 µM; inactive = the rest
Where a SMILES comes first, the peptide text is derived from it. Bridges are numbered along the chain shown (N, C = ends). [ ]: non-standard residue; d: D form. The star is where a group is joined. ξ: configuration not given here. ξDab(CH2SO3H) = NC(CCNCS(=O)(=O)O)C(=O)O; Heptanoyl(6-Me) = CC(C)CCCCC(=O)*; Dab = NCC[CH](N)C(=O)O
Outcomes: yes (1) for active, no (0) for inactive

>  <compound>
CCCCCCCCC/C(=N\NC(=O)c1ccncc1)c1ccc(O)c(O)c1O

>  <labelClass>
yes (1)

$$$$
>  <compound>
Cn1nc(C(F)(F)F)cc1-c1c[nH]c(OCc2ccc(Cl)cc2)c(-c2ccc(Cl)c(C(F)(F)F)c2)c1=O

>  <labelClass>
no (0)

$$$$
>  <compound>
Clc1ccc(Nc2ccnc(N3CCN(c4ccnc5cc(Cl)ccc45)CC3)n2)cc1

>  <labelClass>
no (0)

$$$$
>  <compound>
CC/C(=C(/c1ccc(O)cc1)c1ccc(OCCN)cc1)c1ccccc1

>  <labelClass>
no (0)

$$$$
>  <compound>
COc1cc(C(=O)N2CCN(c3ccccc3)CC2)c2ccccc2n1

>  <labelClass>
yes (1)

$$$$
>  <compound>
CCC(C)C1NC(=O)C(CCNCS(=O)(=O)O)NC(=O)C(NC(=O)C(CCNCS(=O)(=O)O)NC(=O)C(NC(=O)C(CCNCS(=O)(=O)O)NC(=O)CCCCC(C)C)C(C)O)CCNC(=O)C(C(C)O)NC(=O)C(CCNCS(=O)(=O)O)NC(=O)C(CCNCS(=O)(=O)O)NC(=O)C(C(C)CC)NC1=O (stereo not given) ({Heptanoyl(6-Me)}-[ξDab(CH2SO3H)]T[ξDab(CH2SO3H)][Dab][ξDab(CH2SO3H)]II[ξDab(CH2SO3H)][ξDab(CH2SO3H)]T; lactam 4-C; configuration not given here)

>  <labelClass>
no (0)

$$$$
>  <compound>
S=C(NCCNC(=S)[S][Sn]([c]1ccccc1)([c]1ccccc1)[c]1ccccc1)[S][Sn]([c]1ccccc1)([c]1ccccc1)[c]1ccccc1

>  <labelClass>
yes (1)

$$$$
>  <compound>
CC(=O)Nc1c(I)c(NC(C)=O)c(I)c(C(=O)O)c1I

>  <labelClass>
no (0)

$$$$
>  <compound>
CCCCCCCCCCCC(=O)N1CCN(C(C)=O)CC1

>  <labelClass>
no (0)

$$$$
>  <compound>
CC(C)(C)[Si](C)(C)OC1[C@@H](O[Si](C)(C)C(C)(C)C)[C@@H](CNC(=O)NC(=O)CF)O[C@H]1n1cnc2c(NC(=O)Nc3ccccc3)ncnc21 (stereo not given in full)

>  <labelClass>
no (0)

$$$$
>  <compound>
O=C(Nc1ccc(-n2cc(-c3ccncc3)c(-c3ccc(O)c(Cl)c3)n2)cc1)Nc1ccc(Cl)c(C(F)(F)F)c1

>  <labelClass>
no (0)

$$$$
>  <compound>
COc1ccc2c(c1)oc(=O)c1cc(OC)ccc12

>  <labelClass>
no (0)

$$$$
>  <compound>
CC[C@@H](C(=O)[C@H](C)[C@H](O)[C@@H](C)[C@H]1O[C@H]([C@@H](CC)C(=O)N(CC)CC)CC[C@H]1C)C1O[C@]2(C=C[C@@H](O)[C@]3(CC[C@@](C)([C@H]4CC[C@](O)(CC)[C@H](C)O4)O3)O2)[C@H](C)C[C@@H]1C (stereo not given in full)

>  <labelClass>
no (0)

$$$$
>  <compound>
COc1cc2c(cc1Cc1cccc(Cl)c1F)c(=O)c(C(=O)O)cn2[C@@H](CO)C(C)C

>  <labelClass>
no (0)

$$$$
>  <compound>
O=[N+]([O-])c1ccc(C2CC(c3ccccc3)=Nc3ccccc3S2)cc1 (stereo not given)

>  <labelClass>
no (0)

$$$$

###

System: HOP-92 NSCLC
protocolDescription: NCI tumour cell line growth inhibition, 48 h

>  <molecule>
Cc1cc(O)cc(C)c1/C=C/c1cncc(C(N)=O)c1

>  <GI50>
1.5 µM

$$$$
>  <molecule>
O=C(/C(=C/c1ccc([N+](=O)[O-])cc1)SCc1ccc(Cl)cc1)c1ccc(F)cc1

>  <GI50>
10.2 µM

$$$$
>  <molecule>
CCNC(=O)Nc1ccc(Oc2ccnc3ccc4c(ccn4C)c23)cc1

>  <GI50>
45.5 µM

$$$$
>  <molecule>
N/C(=N/N=C/c1ccccc1)N/N=C\c1ccccc1

>  <GI50>
2.52 µM

$$$$
>  <molecule>
O=C(Nc1ccc(-n2cc(-c3ccncc3)c(-c3ccc(O)c(Cl)c3)n2)cc1)Nc1ccc(Cl)c(C(F)(F)F)c1

>  <GI50>
1.82 µM

$$$$
>  <molecule>
C#CCN(Cc1nc2cc(C(F)(F)F)ccc2nc1-c1ccccc1)c1ccc(C)cc1

>  <GI50>
31.7 µM

$$$$
>  <molecule>
Cn1cc(C2=C(c3c4n(c5ccccc35)CCC(CN)C4)C(=O)NC2=O)c2ccccc21 (stereo not given)

>  <GI50>
5.25 µM

$$$$
>  <molecule>
N=C(N)SCc1c2ccccc2c(CSC(=N)N)c2ccccc12

>  <GI50>
2.8 µM

$$$$
>  <molecule>
CCCCCCCCCCCC(=O)N1CCN(C(C)=O)CC1

>  <GI50>
11.5 µM

$$$$
>  <molecule>
CC[C@@]1(O)C(=O)OCc2c1cc1n(c2=O)Cc2cc3cccc([N+](=O)[O-])c3nc2-1

>  <GI50>
8.45 µM

$$$$

###

System: COLO 205 colon
protocolDescription: NCI tumour cell line growth inhibition, 48 h
Entries annotated with measured TGI
valueKind: TGI (µM)

>  <molecule>
COC(=O)C1=COC(OC2OC(CO)C(O)C(O)C2O)C2C3CN4CCc5c([nH]c6ccccc56)C4(CC12)O3 (stereo not given)

>  <unit>
µM

>  <op>
>

>  <quantitativeReadout>
100

$$$$
>  <molecule>
COc1cc(/C(=C2/O[C@@H]([C@H]3COC(C)(C)O3)[C@H]3OC(C)(C)O[C@@H]23)c2ccc3ccccc3c2)cc(OC)c1OC

>  <unit>
µM

>  <op>
>

>  <quantitativeReadout>
100

$$$$
>  <molecule>
COC(=O)C1=C(OC(=O)c2ccccc2)C(C(=O)OC)[C@@]2(O)[C@@H](C(=O)OC)[C@H](C)C[C@@H]1[C@@H]2C(=O)OC (stereo not given in full)

>  <unit>
µM

>  <op>
=

>  <quantitativeReadout>
41.1

$$$$
>  <molecule>
CCCCNC(=O)C1C(=O)N(CCCC)C(=O)/C1=N\N (stereo not given)

>  <unit>
µM

>  <op>
>

>  <quantitativeReadout>
100

$$$$
>  <molecule>
C#C/C=C\CCCCCCCCCCCCCC/C=C\CCCCC#CC(O)C#CCCCC/C=C\CCCCCC/C=C/C(O)C#C (stereo not given)

>  <unit>
µM

>  <op>
=

>  <quantitativeReadout>
35.6

$$$$
>  <molecule>
Cn1ncc2c(Nc3cccc(Cl)c3)nc(Nc3cccc(Cl)c3)nc21

>  <unit>
µM

>  <op>
>

>  <quantitativeReadout>
53.8

$$$$
>  <molecule>
[Cl][Hg][c]1ccc(Cl)s1

>  <unit>
µM

>  <op>
=

>  <quantitativeReadout>
2.9

$$$$
>  <molecule>
CC(C)C(=O)CC(c1ccc(Cl)cc1)N1N=C(C(C)C)CC1c1ccc(Cl)cc1 (stereo not given)

>  <unit>
µM

>  <op>
>

>  <quantitativeReadout>
100

$$$$
>  <molecule>
CCN(CC)CCN(C(=Nc1ccccc1)N1CCCCC1)c1ccccc1

>  <unit>
µM

>  <op>
=

>  <quantitativeReadout>
13.1

$$$$
>  <molecule>
COc1ccc(Nc2cc(C)nc(NCc3ccccc3)n2)cc1

>  <unit>
µM

>  <op>
=

>  <quantitativeReadout>
4.4

$$$$

###

System: KM12 colon
protocolDescription: NCI tumour cell line growth inhibition, 48 h

>  <compound>
O=c1c2ccccc2nc(/C=C(\O)c2ccncc2)n1-c1ccc(Cl)cc1

>  <TGI>
> 100 µM

$$$$
>  <compound>
COC(=O)C1=COC(OC2OC(CO)C(O)C(O)C2O)C2C3CN4CCc5c([nH]c6ccccc56)C4(CC12)O3 (stereo not drawn)

>  <TGI>
> 100 µM

$$$$
>  <compound>
NC(N)=NC(N)=Nc1cnccn1

>  <TGI>
> 100 µM

$$$$
>  <compound>
CCOP12(OCC)NC(=O)OC1(C(F)(F)F)c1ccccc1O2 (stereo not drawn)

>  <TGI>
> 100 µM

$$$$
>  <compound>
C=C1CCCC(C)(C)C1CCC1(C)CCC(C(C)C(=O)OC)OO1 (stereo not drawn)

>  <TGI>
2.84 µM

$$$$
>  <compound>
CCOC(=O)c1cc2c3c(c(C(C)=O)c(O)c2[nH]1)N(C(C)=O)CC3

>  <TGI>
> 100 µM

$$$$
>  <compound>
COc1ccc(Cc2c(=O)[nH]nc3ccccc23)cc1

>  <TGI>
> 100 µM

$$$$
>  <compound>
N#Cc1ccc(CSC2=C(c3ccc(Cl)cc3)S/C(=C3\SC(SCc4ccc(C#N)cc4)=C(c4ccc(Cl)cc4)S3)S2)cc1

>  <TGI>
> 100 µM

$$$$
>  <compound>
C[C@]12CC[C@@H]3c4cc(O)c(O)cc4CC[C@H]3[C@@H]1CC[C@@H]2O

>  <TGI>
22.3 µM

$$$$
>  <compound>
[Cl][Hg][c]1ccc(Cl)s1

>  <TGI>
28 µM

$$$$
>  <compound>
O=C(O)c1cc(=O)c2c(OCC(O)COc3cccc4oc(C(=O)O)cc(=O)c34)cccc2o1

>  <TGI>
> 100 µM

$$$$
>  <compound>
C(=N\Nc1ccccc1)/c1nc2ccccc2nc1/C=N/Nc1ccccc1

>  <TGI>
41 µM

$$$$
>  <compound>
C/C(CC(=O)Nc1cc(C)ccc1C)=N/N=C(N)N

>  <TGI>
> 100 µM

$$$$
